Attribution: ChEMBL document CHEMBL3885881

Species: Rattus norvegicus
experimentalProtocol: DrugMatrix - Regimen: Daily Repeat
Format: toxicity, organism-based, Sprague-Dawley
Set-up: regimen Daily Repeat, gender Male, age 6-8 weeks
testParameters: in vivo, po, 0 mg/kg, […], tissue Blood, route oral GAVAGE, dose level Control, time 28 day, vehicle .5 % CMC
parameterMeasured: ABSOLUTE BASOPHIL (cells/µL)
Give just the numeric value; cells/µL need not be written.

So for "O=c1cc(-c2ccccc2)oc2c1ccc1ccccc12" , the logged ABSOLUTE BASOPHIL turned out to be 150

----------
Species on record: Rattus norvegicus
experimentalProtocol: DrugMatrix - Regimen: Daily Repeat
Type: toxicity, organism-based, Sprague-Dawley
Parameters: regimen Daily Repeat, gender Male, age 6-8 weeks
testParameters: in vivo, po, 0 mg/kg, 120 h, tissue Plasma, route oral GAVAGE, dose level Control, time 5 day, […]
Task for the reader: assign each of the following compounds its reported CARBON DIOXIDE.
Give just the numeric value; mmol/L need not be written.

So for CN(C)CCCC1(c2ccc(F)cc2)OCc2cc(C#N)ccc21 (centres undefined) [CITALOPRAM] , the logged CARBON DIOXIDE turned out to be 30.83

So for COCc1c(C(C)C)nc(C(C)C)c(/C=C/[C@@H](O)C[C@@H](O)CC(=O)O)c1-c1ccc(F)cc1 [CERIVASTATIN] , the logged CARBON DIOXIDE turned out to be 29.17

So for Cn1cnc([N+](=O)[O-])c1Sc1ncnc2nc[nH]c12 [AZATHIOPRINE] , the logged CARBON DIOXIDE turned out to be 26.33

So for CC(C)n1c(/C=C/C(O)CC(O)CC(=O)O)c(-c2ccc(F)cc2)c2ccccc21 (centres undefined) [FLUVASTATIN] , the logged CARBON DIOXIDE turned out to be 26.4

So for c1ccc2[nH]c(-c3cscn3)nc2c1 [THIABENDAZOLE] , the logged CARBON DIOXIDE turned out to be 37

So for CSc1ccc2c(c1)N(CCC1CCCCN1C)c1ccccc1S2 (centres undefined) [THIORIDAZINE] , the logged CARBON DIOXIDE turned out to be 26

So for COC1=CC(=O)C[C@@H](C)[C@]12Oc1c(Cl)c(OC)cc(OC)c1C2=O [GRISEOFULVIN] , the logged CARBON DIOXIDE turned out to be 27.17

So for CC(=O)[C@H]1CC[C@H]2[C@@H]3CCC4=CC(=O)CC[C@]4(C)[C@H]3CC[C@]12C [PROGESTERONE] , the logged CARBON DIOXIDE turned out to be 30.83

So for COc1ccc2c(c1)c(CC(=O)OCC(=O)O)c(C)n2C(=O)c1ccc(Cl)cc1 [ACEMETACIN] , the logged CARBON DIOXIDE turned out to be 26.17

So for C=CCN [ALLYLAMINE] , the logged CARBON DIOXIDE turned out to be 43

So for Oc1c(Cl)cc(Cl)cc1Sc1cc(Cl)cc(Cl)c1O [BITHIONOL] , the logged CARBON DIOXIDE turned out to be 26.4

So for CCCCCCCCCc1ccc(O)cc1 [4-NONYLPHENOL] , the logged CARBON DIOXIDE turned out to be 29.17

So for CCCC[C@@H](CC)COC(=O)c1ccccc1C(=O)OC[C@@H](CC)CCCC [BIS(2-ETHYLHEXYL)PHTHALATE] , the logged CARBON DIOXIDE turned out to be 37

So for CC1=C(/C=C/C(C)=C/C=C/C(C)=C\C(=O)O)C(C)(C)CCC1 [ISOTRETINOIN] , the logged CARBON DIOXIDE turned out to be 33.17
